- tested.system: T1, human PCSK9 (proprotein convertase subtilisin kexin type 9) (human, UniProt Q8NBP7 31-692)
- T1 construct: Directly immobilized (SPR ProteOn), biotinylated (BLI), or in solution, depending on the assay; also called hPCSK9
- assay.comment: FRET, competitor EGFA peptide
pEC50: −log10 of the molar value.
measured.attribute: pEC50

[[record]]
binder = "2382H03 (designed binder, Anti-PCSK9 Adnectin, His6-tagged) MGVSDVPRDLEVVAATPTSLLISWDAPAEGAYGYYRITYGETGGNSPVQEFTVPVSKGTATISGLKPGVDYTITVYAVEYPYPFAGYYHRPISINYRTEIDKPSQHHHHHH"
experimental_result = 8.47

[[record]]
binder = "2381B02 (designed binder, Anti-PCSK9 Adnectin, His6-tagged) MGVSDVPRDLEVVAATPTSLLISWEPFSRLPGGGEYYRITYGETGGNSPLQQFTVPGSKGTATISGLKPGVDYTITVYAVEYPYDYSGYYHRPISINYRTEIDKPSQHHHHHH"
experimental_result = 8.60

[[record]]
binder = "2381D04 (designed binder, Anti-PCSK9 Adnectin, His6-tagged) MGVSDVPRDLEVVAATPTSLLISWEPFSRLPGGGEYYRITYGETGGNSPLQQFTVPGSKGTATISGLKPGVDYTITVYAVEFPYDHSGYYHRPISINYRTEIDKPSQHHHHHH"
experimental_result = 8.54

[[record]]
binder = "2382D03 (designed binder, Anti-PCSK9 Adnectin, His6-tagged) MGVSDVPRDLEVVAATPTSLLISWDAPADEAYGYYRITYGETGGNSPVQEFTVPVSKGTATISGLKPGVDYTITVYAVEFDFPGAGYYHRPISINYRTEIDKPSQHHHHHH"
experimental_result = 8.48

